molecular target: SMARCA2 (Homo sapiens, UniProt P51531); construct: SMARCA2-HiBiT knock-in Hela monoclonal cell (CS302366); host or cells: HeLa (CRISPR HiBiT knock-in monoclonal line, heterozygous); experiment: SMARCA2 HiBiT degradation assay in HeLa cells; type: cell-based; conditions: 18 hours
Sequence (P51531 whole entry): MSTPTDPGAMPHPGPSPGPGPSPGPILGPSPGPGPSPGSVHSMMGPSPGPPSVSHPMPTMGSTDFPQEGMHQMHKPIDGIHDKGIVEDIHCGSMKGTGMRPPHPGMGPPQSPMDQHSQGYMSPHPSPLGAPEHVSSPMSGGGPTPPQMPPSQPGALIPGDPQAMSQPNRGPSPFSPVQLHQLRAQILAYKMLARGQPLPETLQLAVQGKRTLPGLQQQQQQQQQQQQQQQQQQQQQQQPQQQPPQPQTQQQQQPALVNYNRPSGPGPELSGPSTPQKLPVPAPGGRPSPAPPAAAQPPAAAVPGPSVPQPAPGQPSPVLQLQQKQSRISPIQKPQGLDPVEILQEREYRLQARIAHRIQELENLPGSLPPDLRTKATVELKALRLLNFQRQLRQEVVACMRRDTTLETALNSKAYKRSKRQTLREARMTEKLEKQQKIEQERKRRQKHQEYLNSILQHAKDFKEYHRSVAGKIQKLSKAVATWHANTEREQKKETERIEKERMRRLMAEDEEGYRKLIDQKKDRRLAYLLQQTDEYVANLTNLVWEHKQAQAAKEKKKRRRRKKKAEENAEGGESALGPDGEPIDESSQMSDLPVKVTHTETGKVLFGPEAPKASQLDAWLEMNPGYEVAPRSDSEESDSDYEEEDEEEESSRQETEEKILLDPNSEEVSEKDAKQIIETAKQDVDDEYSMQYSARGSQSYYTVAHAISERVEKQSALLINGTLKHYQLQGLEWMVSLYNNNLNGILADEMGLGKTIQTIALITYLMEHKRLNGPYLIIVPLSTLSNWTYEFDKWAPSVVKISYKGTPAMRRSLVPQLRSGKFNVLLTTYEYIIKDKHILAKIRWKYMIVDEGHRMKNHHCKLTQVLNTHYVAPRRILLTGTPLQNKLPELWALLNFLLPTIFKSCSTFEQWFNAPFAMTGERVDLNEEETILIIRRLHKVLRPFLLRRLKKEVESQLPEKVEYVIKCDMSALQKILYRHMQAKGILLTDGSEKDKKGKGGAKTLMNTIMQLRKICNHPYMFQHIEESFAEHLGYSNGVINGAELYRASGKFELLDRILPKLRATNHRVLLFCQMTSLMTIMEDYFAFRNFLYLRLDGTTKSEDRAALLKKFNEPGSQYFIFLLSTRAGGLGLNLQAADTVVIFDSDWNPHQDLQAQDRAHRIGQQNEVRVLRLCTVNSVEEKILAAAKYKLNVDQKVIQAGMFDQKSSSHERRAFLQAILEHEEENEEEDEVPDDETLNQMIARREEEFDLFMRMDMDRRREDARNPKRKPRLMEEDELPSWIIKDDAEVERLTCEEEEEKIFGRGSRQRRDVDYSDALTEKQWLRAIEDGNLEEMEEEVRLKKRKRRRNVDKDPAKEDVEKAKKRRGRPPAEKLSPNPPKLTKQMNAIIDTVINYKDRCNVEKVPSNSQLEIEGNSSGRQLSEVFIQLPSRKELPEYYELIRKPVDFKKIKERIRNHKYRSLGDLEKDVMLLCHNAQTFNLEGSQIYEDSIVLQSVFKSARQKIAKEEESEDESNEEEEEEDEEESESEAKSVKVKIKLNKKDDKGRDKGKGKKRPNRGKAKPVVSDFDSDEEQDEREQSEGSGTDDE
Parameter measured: SMARCA2 DMax %

Compound	SMARCA2 DMax %
CCC12CNc3nnc(-c4cccc(F)c4O)cc3N1CCN(C(=O)N1[C@H](C)CN(CC3CCN(c4ccc5c(c4)C(=O)N(C4CCC(=O)NC4=O)C5)CC3)C[C@@H]1C)C2 (single isomer, unassigned) [Example 88]	A (A=Dmax>75%)
C[C@@H]1C[C@H](CN2CCN(c3ccc4c(c3)C(=O)N([C@H]3CCC(=O)NC3=O)C4)CC2)C[C@H](C)N1C(=O)N1CCN2c3cc(-c4cccc(F)c4O)nnc3NCC2(C(F)(F)F)C1 (single isomer, unassigned)	A (A=Dmax>75%)
O=C1CCC(N2Cc3ccc(N4CCC(CN5C[C@@H]6[C@H](C5)[C@H]6CN5CCN6c7cc(-c8cc(F)cc(F)c8O)nnc7NC[C@H]6C5)C(F)(F)C4)cc3C2=O)C(=O)N1 (single isomer, unassigned) [Example 41]	A (A=Dmax>75%)
C[C@@H]1CN(CC2CCN(c3ccc4c(c3)C(=O)N(C3CCC(=O)NC3=O)C4)CC2)C[C@H](C)N1C(=O)N1CCN2c3cc(-c4cccc(F)c4O)nnc3NCC2(C)C1 (single isomer, unassigned)	A (A=Dmax>75%)
CC1(C)CN(CC2CCN(c3ccc4c(c3)C(=O)N([C@H]3CCC(=O)NC3=O)C4)CC2)CCN1C(=O)N1CCN2c3cc(-c4cccc(F)c4O)nnc3NCC2(C(F)(F)F)C1 (single isomer, unassigned) [Example 100]	A (A=Dmax>75%)

Please supply the value of reported SMARCA2 DMax % for the item CCC12CNc3nnc(-c4cccc(F)c4O)cc3N1CCN(C(=O)N1CCN(CC3CCN(c4ccc5c(c4)C(=O)N(C4CCC(=O)NC4=O)C5)CC3)CC1(C)C)C2 (single isomer, unassigned) A (A=Dmax>75%)

// fetch SMARCA2 DMax % given entry CCC12CNc3nnc(-c4cccc(F)c4O)cc3N1CCN(C(=O)N1[C@H](C)CN(CC3CCN(c4ccc5c(c4)C(=O)N(C4CCC(=O)NC4=O)C5)CC3)C[C@H]1C)C2 (single isomer, unassigned) A (A=Dmax>75%)

Note down SMARCA2 DMax % recorded for CCC12CNc3nnc(-c4cccc(F)c4O)cc3N1CCN(C(=O)N1[C@H](C)CN(CC3CCN(c4ccc5c(c4)C(=O)N(C4CCC(=O)NC4=O)C5)CC3)C[C@@H]1C)C2 (single isomer, unassigned) [Example 62] A (A=Dmax>75%)

* * *

molecular target: SMARCA4 (Homo sapiens, UniProt P51532); construct: SMARCA4-HiBiT knock-in Hela monoclonal cell (CS3023226) were purchased from Promega; host or cells: HeLa (CRISPR HiBiT knock-in monoclonal line, heterozygous); assay: SMARCA4 HiBiT degradation assay in HeLa cells; type: cell-based; settings: 18 hours
Sequence (P51532 whole entry): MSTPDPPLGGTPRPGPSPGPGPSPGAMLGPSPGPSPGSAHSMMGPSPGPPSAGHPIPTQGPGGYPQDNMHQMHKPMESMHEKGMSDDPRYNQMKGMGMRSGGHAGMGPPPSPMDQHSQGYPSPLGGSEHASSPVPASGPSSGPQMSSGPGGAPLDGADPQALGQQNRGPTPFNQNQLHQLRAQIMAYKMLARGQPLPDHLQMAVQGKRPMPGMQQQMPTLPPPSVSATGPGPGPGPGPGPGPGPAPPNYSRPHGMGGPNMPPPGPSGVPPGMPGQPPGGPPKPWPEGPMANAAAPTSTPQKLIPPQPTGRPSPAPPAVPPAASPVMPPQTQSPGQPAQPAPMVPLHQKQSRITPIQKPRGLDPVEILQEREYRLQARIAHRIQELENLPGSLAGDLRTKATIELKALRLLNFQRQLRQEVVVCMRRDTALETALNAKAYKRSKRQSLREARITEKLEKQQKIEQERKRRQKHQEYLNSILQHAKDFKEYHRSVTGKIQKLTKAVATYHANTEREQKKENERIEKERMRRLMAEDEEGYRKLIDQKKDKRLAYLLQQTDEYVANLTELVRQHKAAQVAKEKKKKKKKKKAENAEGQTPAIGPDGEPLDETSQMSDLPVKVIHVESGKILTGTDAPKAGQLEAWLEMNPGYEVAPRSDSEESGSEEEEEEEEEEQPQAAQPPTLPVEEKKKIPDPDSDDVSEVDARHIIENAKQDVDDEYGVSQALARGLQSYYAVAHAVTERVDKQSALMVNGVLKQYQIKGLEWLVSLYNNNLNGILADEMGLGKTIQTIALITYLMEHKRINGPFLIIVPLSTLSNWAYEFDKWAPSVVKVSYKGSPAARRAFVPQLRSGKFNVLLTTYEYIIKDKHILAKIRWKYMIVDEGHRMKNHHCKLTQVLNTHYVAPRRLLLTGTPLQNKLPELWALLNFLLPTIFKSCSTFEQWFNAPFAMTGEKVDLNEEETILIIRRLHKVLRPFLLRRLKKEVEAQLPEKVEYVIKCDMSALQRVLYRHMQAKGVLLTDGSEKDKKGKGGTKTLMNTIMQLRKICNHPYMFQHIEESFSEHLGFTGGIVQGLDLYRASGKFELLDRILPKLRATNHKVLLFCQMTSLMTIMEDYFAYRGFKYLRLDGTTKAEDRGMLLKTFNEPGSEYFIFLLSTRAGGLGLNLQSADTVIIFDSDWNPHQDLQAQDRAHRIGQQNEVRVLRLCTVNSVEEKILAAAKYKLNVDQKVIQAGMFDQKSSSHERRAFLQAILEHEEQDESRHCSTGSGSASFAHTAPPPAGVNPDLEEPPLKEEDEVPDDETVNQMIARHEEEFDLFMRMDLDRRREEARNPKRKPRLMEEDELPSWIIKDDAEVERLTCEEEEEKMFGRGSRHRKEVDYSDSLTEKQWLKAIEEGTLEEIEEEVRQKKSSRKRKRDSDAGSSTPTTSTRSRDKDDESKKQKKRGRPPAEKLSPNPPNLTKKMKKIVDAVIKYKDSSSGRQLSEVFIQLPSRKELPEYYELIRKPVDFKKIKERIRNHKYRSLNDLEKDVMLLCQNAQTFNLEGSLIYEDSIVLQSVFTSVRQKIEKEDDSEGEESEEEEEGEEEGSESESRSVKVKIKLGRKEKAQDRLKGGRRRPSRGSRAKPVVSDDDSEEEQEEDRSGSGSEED
Below, each entry is listed with its recorded DC50.

Please review the entries below; each comes with its answer.
Compound	Endpoint value
CC1(C)CN(CC2CCN(c3ccc4c(c3)C(=O)N(C3CCC(=O)NC3=O)C4)CC2)CCC1C(=O)N1CCN2c3cc(-c4cc(F)cc(F)c4O)nnc3NC[C@H]2C1 (stereo partly drawn)	100 to 1000 nM
O=C1CCC(N2Cc3cc(N4CCO[C@@H](CN5CC[C@H](CN6CCN7c8cc(-c9cc(F)cc(F)c9O)nnc8NC[C@H]7C6)[C@@H](F)C5)C4)ccc3C2=O)C(=O)N1 (stereo partly drawn)	> 1000 nM

Give recorded DC50. C[C@H]1CN2c3cc(-c4cc(F)cc(F)c4O)nnc3NC[C@H]2CN1C[C@H]1[C@@H]2CN(C[C@H]3CCN(c4ccc5c(c4)C(=O)N(C4CCC(=O)NC4=O)C5)C[C@@H]3F)C[C@@H]21 (single isomer, unassigned) < 100 nM

* * *

Molecular target: SMARCA4 (Homo sapiens, UniProt P51532)
Construct: SMARCA4-HiBiT knock-in Hela monoclonal cell (CS3023226) were purchased from Promega; host or cells: HeLa (CRISPR HiBiT knock-in monoclonal line, heterozygous)
Assay: SMARCA4 HiBiT degradation assay in HeLa cells
Format: cell-based
Settings: HeLa, 18 hours
Method: Example A. SMARCA2 HiBiT and SMARCA4 HiBiT Degradation Assay Preparation of SMARCA2/4-HiBiT Knock-In Cells HiBiT peptide knock-in of SMARCA2 in LgBiT expressing HEK293T cells was performed by CRISPR-mediated tagging system as described Promega. The homozygous HiBiT knock-in on c-terminus SMARCA2 was confirmed by sanger sequence. SMARCA2-HiBiT knock-in Hela monoclonal cell (CS302366) and SMARCA4-HiBiT knock-in Hela monoclonal cell (CS3023226) were purchased from Promega. […]
Parameter measured: Dmax

Molecule	Test system	Parameter measured	Endpoint value
C[C@H]1CN2c3cc(-c4cccc(F)c4O)nnc3NC[C@H]2CN1C(=O)N1CCN(CC2CCN(c3ccc4c(c3)C(=O)N(C3CCC(=O)NC3=O)C4)CC2)CC1(C)C (stereo partly drawn)	SMARCA4 (Homo sapiens, UniProt P51532)	Dmax	< 50%

Let me know recorded Dmax for C[C@@H]1CN(CC2CCN(c3ccc4c(c3)C(=O)N([C@@H]3CCC(=O)NC3=O)C4)CC2)C[C@H](C)N1C(=O)N1CCN2c3cc(-c4cc(F)cc(F)c4O)nnc3NC[C@H]2C1 , thanks. < 50%

For CCC12CNc3nnc(-c4cc(F)cc(F)c4O)cc3N1CCN(C(=O)N1[C@H](C)CN(CC3CCN(c4ccc5c(c4)C(=O)N(C4CCC(=O)NC4=O)C5)CC3)C[C@@H]1C)C2 (single isomer, unassigned) , write its Dmax. > 75%

* * *

Dmax listing for selected molecules.
biological target: SMARCA2 (Homo sapiens, UniProt P51531); construct: SMARCA2-HiBiT knock-in Hela monoclonal cell (CS302366); host or cells: HeLa (CRISPR HiBiT knock-in monoclonal line, heterozygous); experiment: SMARCA2 HiBiT degradation assay in HeLa cells; type: cell-based; conditions: HeLa, 18 hours

Molecule	Parameter measured	Endpoint value
C[C@@H]1CN(CC2CCN(c3ccc4c(c3)C(=O)N([C@H]3CCC(=O)NC3=O)C4)CC2)C[C@@H](C)N1C(=O)N1CCN2c3cc(-c4cccc(F)c4O)nnc3NCC2(C(F)(F)F)C1 (single isomer, unassigned) [Example 96]	Dmax	> 75%
CCC12CNc3nnc(-c4cccc(Cl)c4O)cc3N1CCN(C(=O)N1[C@H](C)CN(CC3CCN(c4ccc5c(c4)C(=O)N([C@H]4CCC(=O)NC4=O)C5)CC3)C[C@H]1C)C2 (single isomer, unassigned) [Example 75]	Dmax	> 75%

// switching to the query molecule
Look up and state reported Dmax for CC1(C)CN(CC2CN(c3ccc4c(c3)C(=O)N(C3CCC(=O)NC3=O)C4)C2)CCN1C(=O)N1CCN2c3cc(-c4cc(F)cc(F)c4O)nnc3NC[C@H]2C1 (stereo partly drawn) [Example 23] > 75%

* * *

target: SMARCA4 (Homo sapiens, UniProt P51532); construct: SMARCA4-HiBiT knock-in Hela monoclonal cell (CS3023226) were purchased from Promega; host or cells: HeLa (CRISPR HiBiT knock-in monoclonal line, heterozygous); test: SMARCA4 HiBiT degradation assay in HeLa cells; format: cell-based; details: 18 hours
Parameter measured: SMARCA4 DMax %

Answered examples (6):
Compound	Endpoint value
CCC12CNc3nnc(-c4cc(F)cc(F)c4O)cc3N1CCN(C(=O)C1(F)CCC(CN3CCN(c4ccc5c(c4)C(=O)N([C@H]4CCC(=O)NC4=O)C5)CC3)CC1)C2 (single isomer, unassigned) [Example 102]	A (A=Dmax>75%)
CCC12CNc3nnc(-c4cccc(F)c4O)cc3N1CCN(C(=O)N1[C@H](C)CN(CC3CCN(c4ccc5c(c4)C(=O)N(C4CCC(=O)NC4=O)C5)CC3)C[C@@H]1C)C2 (single isomer, unassigned) [Example 62]	A (A=Dmax>75%)
C[C@@H]1CN(CC2CCN(c3ccc4c(c3)C(=O)N([C@H]3CCC(=O)NC3=O)C4)CC2)C[C@@H](C)N1C(=O)N1CCN2c3cc(-c4cccc(F)c4O)nnc3NCC2(C(F)(F)F)C1 (single isomer, unassigned) [Example 97]	C (C=Dmax<50%)
CC1(C)CN(CC2CCN(c3ccc4c(c3)C(=O)N([C@H]3CCC(=O)NC3=O)C4)CC2)CCN1C(=O)N1CCN2c3cc(-c4cccc(F)c4O)nnc3NCC2(CF)C1 (single isomer, unassigned)	C (C=Dmax<50%)
CC12CNc3nnc(-c4cc(F)cc(F)c4O)cc3N1CCN(C(=O)C1(F)CCN(CC3CCN(c4ccc5c(c4)C(=O)N([C@H]4CCC(=O)NC4=O)C5)CC3)CC1)C2 (single isomer, unassigned) [Example 112]	A (A=Dmax>75%)
CCC12CNc3nnc(-c4cccc(F)c4O)cc3N1CCN(C(=O)C1(F)CCN(CC3CCN(c4ccc5c(c4)C(=O)N([C@H]4CCC(=O)NC4=O)C5)CC3)CC1)C2 (single isomer, unassigned) [Example 107]	C (C=Dmax<50%)

Read the entry CCC12CNc3nnc(-c4cccc(F)c4O)cc3N1CCN(C(=O)C1(F)CCN(CC3CCN(c4ccc5c(c4)C(=O)N([C@H]4CCC(=O)NC4=O)C5)CC3)CC1)C2 (single isomer, unassigned) [Example 108] and write its reported SMARCA4 DMax %. A (A=Dmax>75%)
